tested on: PPARg:RXRa DBDmut IVT, anti-RXR (DBD mutation: RXRa K156A/R161A, NR concentration 270 nM, RXRa partner concentration 90 nM); assay: PBM binding z-score (relative to random genomic background probes); higher = stronger binding; sequences stand for … in GC…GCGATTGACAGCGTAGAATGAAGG
Mark rule not met for PBM binding z-score values under 3, and rule met for everything at or above.

CGGACTGGGGCAGAAAGGTTACCATACCATCCGG = rule met
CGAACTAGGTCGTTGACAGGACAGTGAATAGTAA = rule met
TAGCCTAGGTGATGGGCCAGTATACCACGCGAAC = rule not met
CAAACTAGGTCAAGAGCTCAAAGTCCGCTTCCCG = rule met
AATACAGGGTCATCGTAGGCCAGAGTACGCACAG = rule not met
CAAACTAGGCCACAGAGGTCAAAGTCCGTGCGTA = rule met
TCATATAGGTAAAGGTGAGAGTCGAACGATATGA = rule met
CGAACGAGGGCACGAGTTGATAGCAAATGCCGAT = rule met
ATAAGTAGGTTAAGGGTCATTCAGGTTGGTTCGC = rule met
GGAACGAGGGCAAGTTCATAGCAGAGTTTGATGG = rule met

Prompt line: Could you please find out whether `CCTTACGGGTCACTCCAGGTTATAGCGTCGGAGT` has PBM binding z-score that meets 3 or exceeds it?
Response line: rule not met

Prompt line: Is the recorded value of PBM binding z-score equal to or greater than 3 for this sequence? `TCATAAAGGTAAATGCTAGGTGAAAGTCCGATCT`
Response line: rule met

Prompt line: Given `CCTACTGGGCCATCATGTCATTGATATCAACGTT` , state whether its PBM binding z-score is at least 3.
Response line: rule met

Prompt line: Is PBM binding z-score at least 3? Consider `AGTCAAAGCTCACTAGGTAACGTAAGATTCAGCT`
Response line: rule not met

Prompt line: Is PBM binding z-score for `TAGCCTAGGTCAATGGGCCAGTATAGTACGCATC` at or above 3?
Response line: rule not met

Prompt line: Check the entry `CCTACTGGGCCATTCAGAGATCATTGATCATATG` : does PBM binding z-score equal or exceed 3?
Response line: rule met

Prompt line: Reported PBM binding z-score reaches at least 3 for `CCAGAGAGGTGAGAAGGTAACTCAGCCTCGATTA` ?
Response line: rule not met

Prompt line: Is PBM binding z-score for `CCTAGCATGCCAATCTGGGTCACTCAAGGCTTGA` at or above 3?
Response line: rule met

Prompt line: PBM binding z-score >= 3 for `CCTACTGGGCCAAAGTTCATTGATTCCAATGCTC` ?
Response line: rule met

Prompt line: Please tell me: is the sequence `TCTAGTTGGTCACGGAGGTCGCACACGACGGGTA` at or over 3 in terms of PBM binding z-score?
Response line: rule not met

Prompt line: Hello, I need to know if `GATACAGGGTCAGCTAGAGGCAAGAGTATGGAAA` has measured PBM binding z-score not below 3. Thanks!
Response line: rule not met

Prompt line: # bool: PBM binding z-score of `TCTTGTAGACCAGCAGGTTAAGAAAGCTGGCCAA` >= 3
Response line: rule not met

Prompt line: Check this sequence for PBM binding z-score at or above 3: `CAGCCTACGTCAGGGCCAGTATAGGAGGAACGTT`
Response line: rule not met

Prompt line: Can `CAAACTAGATCAAGGTCAAAGTCGGTTTGTGCCA` be said to have PBM binding z-score at or above 3?
Response line: rule met

Prompt line: Please tell me: is the sequence `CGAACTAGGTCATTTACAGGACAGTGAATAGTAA` at or over 3 in terms of PBM binding z-score?
Response line: rule met

Prompt line: API: above_or_equal(metric=PBM binding z-score, cutoff=3) for item `GCGACTGGGTCATCAGCAGGTTACCATAACTTAA`
Response line: rule met

Prompt line: Hi, just wondering whether `GCTGCTAGGTCAACTGATGGTCAGCTACAGCTCG` shows PBM binding z-score of 3 or higher.
Response line: rule met

Prompt line: Please tell me: is the sequence `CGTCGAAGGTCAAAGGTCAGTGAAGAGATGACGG` at or over 3 in terms of PBM binding z-score?
Response line: rule met

Prompt line: Would you say `CAAACAGGGTCAGCTAGGCCAGAGTAGGGACGGC` shows PBM binding z-score at minimum 3?
Response line: rule not met

* * *

tested on: PPARg:RXRa 30nM:10nM, anti-RXR (NR concentration 30 nM, RXRa partner concentration 10 nM); test: PBM binding z-score (relative to random genomic background probes); higher = stronger binding; sequences stand for … in GC…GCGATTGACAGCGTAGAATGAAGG
# if value of PBM binding z-score reaches 2, tag true; if it stays below, tag false

Example cases with answers are listed next.
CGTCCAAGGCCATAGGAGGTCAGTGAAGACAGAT = false
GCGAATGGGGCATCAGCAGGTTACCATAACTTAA = false
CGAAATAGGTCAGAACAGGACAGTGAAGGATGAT = true
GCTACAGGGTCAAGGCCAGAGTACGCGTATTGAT = false
CGAACTAGGTCAAGGACAGTGCATCTCCGCACGC = true
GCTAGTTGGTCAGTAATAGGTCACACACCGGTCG = false
GTACCAAAGTGAATAGGTCGTTGATGAGTAGGCG = false
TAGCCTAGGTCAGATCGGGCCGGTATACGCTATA = false
TGAATGAGGTTAAAGATCAGGGGACGTGGCGTCG = true
CGTCCAAGGTCAGAGAAGTCAGTGAATGCCGAGT = false

Prompt line: I'd appreciate it if you could say whether `TCTTGTAGATCAACAGGAGGTTAAGGAAGATCGA` has PBM binding z-score at least equal to 2.
Response line: true

Prompt line: Check the entry `TAGCCTAGGTCATTGAGCCAGTATAGTACGCATC` : does PBM binding z-score equal or exceed 2?
Response line: false

Prompt line: In plain terms: is recorded PBM binding z-score at least 2 for `TCAGACAGGTGAAGGTAACTAAGGTACGCAGTCG` ?
Response line: true

Prompt line: Evaluate `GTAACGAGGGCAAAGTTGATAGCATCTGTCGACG` : PBM binding z-score at minimum 2?
Response line: true

Prompt line: Determine whether this sequence has PBM binding z-score no lower than 2: `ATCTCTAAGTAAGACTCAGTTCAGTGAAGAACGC`
Response line: false

Prompt line: Has `TCAGATAGGTAATACAGGTGAAAGTCGGCATCTA` a recorded PBM binding z-score greater than or equal to 2?
Response line: true

Prompt line: Dear colleague, could you confirm whether `GCTGCTAGGTCAACTGATGGTCAGCCAAAGCTCG` has PBM binding z-score at or above 2?
Response line: false

Prompt line: Form field: PBM binding z-score at least 2? Entry: `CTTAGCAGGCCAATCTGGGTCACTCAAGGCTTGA`
Response line: false

Prompt line: Check the entry `TCGTATAGGTAATACAGGTGAAAGTCGGCATCTA` : does PBM binding z-score equal or exceed 2?
Response line: true

* * *

system: RARa homodimer (NR concentration 270 nM); experiment: PBM binding z-score (relative to random genomic background probes); higher = stronger binding; sequences stand for … in GC…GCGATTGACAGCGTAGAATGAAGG
Below, each entry is listed alongside its reported PBM binding z-score.

Use the examples below as a reference point.
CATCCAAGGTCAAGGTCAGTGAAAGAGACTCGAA = 1.98
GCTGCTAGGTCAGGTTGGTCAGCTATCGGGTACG = -0.348
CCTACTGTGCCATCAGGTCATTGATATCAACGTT = 2.21
TTACCAAGGTGAAAGGTCGTTGTTGCACGCCTTG = -0.175
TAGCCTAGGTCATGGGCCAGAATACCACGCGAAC = 0.121

Prompt line: Param item = `TCATATAGGTATATGCTAGGTGAAAGTCCGATCT` ; retrieve measured PBM binding z-score.
Response line: 0.379

Prompt line: For `CGACCTAGGTCAGAACAGGACAGTGAAGGATGAT` , what is its reported PBM binding z-score?
Response line: 0.342

Prompt line: Recorded PBM binding z-score for `ACTAGCAGTCCAAGGGTCACTCAAGATTAGTCCG` , please?
Response line: -0.132

Prompt line: Quick one: PBM binding z-score of `CCTGACAGGTGAGAAGGTAACTCAGCCTCGATTA` ?
Response line: -0.07

Prompt line: Record request: PBM binding z-score value, item `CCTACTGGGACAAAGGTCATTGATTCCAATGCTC`
Response line: 2

Prompt line: Quick one: PBM binding z-score of `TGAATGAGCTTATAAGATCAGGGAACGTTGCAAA` ?
Response line: -0.206

Prompt line: I am curious: what PBM binding z-score value has been reported for `GCGTCTGGGGCAAAGCAGGTTACCATAAGGTTGG` ?
Response line: -1.37
